These data points were gathered from BigSolDB 2.1.

Settings: in n-heptanol, 303.15 K
Readout: solubility (mole fraction)
Respond using a number only.

Look at this compound and give its reported solubility (mole fraction). "Nc1cccc(Cl)c1C(=O)O"
0.0338

###

Conditions: in acetonitrile, 283.15 K
Readout: solubility (mole fraction)
Reply briefly: the number, and no unit.

Suppose we examine the molecule "Nc1cccc(Cl)c1C(=O)O" ; what solubility (mole fraction) value has been reported?
0.00991

###

Conditions: in ethanol, 323.15 K
Readout: solubility (mole fraction)
Response field accepts a number only; no unit should be typed.

Which measured solubility (mole fraction) value corresponds to "Nc1cccc(Cl)c1C(=O)O" ?
0.141

###

Conditions: in isopropanol, 283.15 K
Readout: solubility (mole fraction)
// no unit string in output, number only

Can you look up the measured solubility (mole fraction) of "Nc1cccc(Cl)c1C(=O)O" for me?
0.0231

###

Details: in ethanol, 318.15 K
Readout: solubility (mole fraction)
Just the number.

// lookup solubility (mole fraction) for "Nc1cccc(Cl)c1C(=O)O"
0.119

###

Conditions: in n-propanol, 323.15 K
Readout: solubility (mole fraction)
Write the number on its own, no unit after it.

Using the record for "Nc1cccc(Cl)c1C(=O)O" , report its solubility (mole fraction).
0.103

###

Conditions: in ethylene glycol, 308.15 K
Readout: solubility (mole fraction)

Form field: reported solubility (mole fraction) of "Nc1cccc(Cl)c1C(=O)O"
0.0505

###

Conditions: in cyclohexane, 288.15 K
Readout: solubility (mole fraction)
# output: bare number, no unit

Sample "Nc1cccc(Cl)c1C(=O)O" — what was its solubility (mole fraction)?
6e-05

###

Conditions: in NMP, 308.15 K
Readout: solubility (mole fraction)

Item "Nc1cccc(Cl)c1C(=O)O" has what recorded solubility (mole fraction)?
0.135

###

Settings: in NMP, 278.15 K
Readout: solubility (mole fraction)
Response field accepts a number only; no unit should be typed.

What solubility (mole fraction) value was documented for this molecule, "Nc1cccc(Cl)c1C(=O)O" ?
0.0744

###

Conditions: in acetonitrile, 323.15 K
Readout: solubility (mole fraction)
Respond numerically, and do not add a unit to the figure.

# query: solubility (mole fraction) of entry "Nc1cccc(Cl)c1C(=O)O"
0.0541

###

Conditions: in n-heptanol, 288.15 K
Readout: solubility (mole fraction)

Which solubility (mole fraction) reading was recorded for the compound "Nc1cccc(Cl)c1C(=O)O" ?
0.0177

###

Conditions: in toluene, 293.15 K
Readout: solubility (mole fraction)
// print number alone

# solubility (mole fraction) lookup, item "Nc1cccc(Cl)c1C(=O)O"
0.0075

###

Conditions: in n-octanol, 318.15 K
Readout: solubility (mole fraction)

For the molecule shown here, "Nc1cccc(Cl)c1C(=O)O" , give the reported solubility (mole fraction).
0.0606

###

Conditions: in n-octanol, 288.15 K
Readout: solubility (mole fraction)

solubility (mole fraction) for "Nc1cccc(Cl)c1C(=O)O" ?
0.0154

###

Settings: in ethyl acetate, 303.15 K
Readout: solubility (mole fraction)
Please reply with the number alone, leaving off any unit.

Which solubility (mole fraction) value is on record for "Nc1cccc(Cl)c1C(=O)O" ?
0.0612

###

Conditions: in acetonitrile, 303.15 K
Readout: solubility (mole fraction)

I'd like to know its solubility (mole fraction). The compound in question is "Nc1cccc(Cl)c1C(=O)O"
0.0259

###

Conditions: in isopropanol, 308.15 K
Readout: solubility (mole fraction)
Reply with the value as a number alone.

So what's the measured solubility (mole fraction) for this one? "Nc1cccc(Cl)c1C(=O)O"
0.0571
